Assay: Human HepG2 cell viability assay in 384 well format
Assay type: toxicity, cell-based
Design: dose 125 nL, time 70.5 hour; concentration not given beside the values
Details: HepG2 cells, read-out: Inhibition
endpoint_name: cytotoxicity at 70.5 h

Task: Which cytotoxicity at 70.5 h is listed for Cc1cccc2c(=O)c(C(=O)N3CCCC4(CN(C)C(=O)O4)C3)c[nH]c12 (stereo unspecified) ?
Result: -3.6%

Task: Same question, O=C(CC1CCN(c2ncnc3ccccc23)CC1)N1CCCC1 this time
Result: -6.95%

Task: Subsequent entry: CC(C)C(=O)N1CCC2(COCc3cnc(-c4cccnc4)nc32)C1 (stereo unspecified)
Result: -7.75%

Task: Item: Cc1ccc(NC(=O)c2nc3c(s2)CCCN3C(=O)C2CC2)cn1
Result: 3.07%

Task: Can you check CC(C)=CCN1CCC(c2nnc(CN3CCN(C)CC3)n2C)CC1 next?
Result: 35%

Task: Please do the same for O=C(c1ccc[nH]1)N1CCn2cc(CN3CCCC3)nc2C1 as well.
Result: -8.96%

Task: And COCCNC(=O)CCNc1ccc(Cl)cn1 ?
Result: -6.53%

Task: Input Cc1ccc(S(=O)(=O)CCC(=O)N(C)Cc2cnn(C)c2)cc1
Result: -73.6%

Task: Please answer likewise for Cc1ccc(S(=O)(=O)Nc2ccc(N3CCSCC3)c(C(=O)O)c2)s1
Result: -10.2%

Task: And then CC(C)C(C)N(Cc1cnc2ccccc2n1)Cc1ccco1 (stereo unspecified) , what is it?
Result: -8.62%

Task: Entry CN(Cc1cc(C2CC2)[nH]n1)C(=O)c1ccccc1C1CCNC1 (stereo unspecified) please
Result: -3.91%
